# study-target: Human LBAT (Homo sapiens)
# Construct: kept under Geneticin selection
# Sequence (Q14973 1-349): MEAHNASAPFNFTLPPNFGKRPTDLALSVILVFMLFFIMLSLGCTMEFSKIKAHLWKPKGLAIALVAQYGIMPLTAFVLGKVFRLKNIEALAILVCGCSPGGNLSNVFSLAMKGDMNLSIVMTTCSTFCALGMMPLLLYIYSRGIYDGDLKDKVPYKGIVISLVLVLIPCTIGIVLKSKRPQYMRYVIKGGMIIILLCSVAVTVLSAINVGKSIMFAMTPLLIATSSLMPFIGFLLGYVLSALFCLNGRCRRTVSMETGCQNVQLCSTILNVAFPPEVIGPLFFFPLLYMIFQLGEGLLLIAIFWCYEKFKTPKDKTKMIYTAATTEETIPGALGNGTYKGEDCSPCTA
# experimental-details: LBAT (h/m) assay, human LBAT-overexpressing cells, 3H-taurocholic acid uptake
# conditions: 0.3 μM 3H-taurocholic acid and 7.5 μM cold taurocholic acid, 20 minutes, read-out: hLBAT IC50
# Protocol: LBAT (h/m) Assay Protocol […] 100 μL of MicroScint-20 (PerkinElmer 6013621) was added to the wells and kept overnight at room temperature before reading the plates in TopCount NXT™ Microplate Scintillation and Luminescence Counter from PerkinElmer under 3H Test protocol (set at 120 seconds reading time per well, with normal plate orientation). […]
pIC50: −log10 of the molar value.
measurement-type: pIC50

Sample answers from the record:
Find the recorded pIC50 belonging to CCCCC1CN(c2ccccc2)c2cc(SC)c(OCC3(C(=O)O)CC3)cc2S(=O)(=O)N1C (single isomer, unassigned) [4, enantiomer 2] and report it.
8.13

Find the recorded pIC50 belonging to CCCCC1CN(c2ccccc2)c2cc(SCC)c(OCC(C)(C)C(=O)O)cc2S(=O)(=O)N1C (single isomer, unassigned) [6, enantiomer 2] and report it.
8.21

Find the recorded pIC50 belonging to CCCCC1CN(c2ccccc2)c2cc(SC)c(OCC(C)(C)C(=O)O)cc2S(=O)(=O)N1C (single isomer, unassigned) [2, enantiomer 1] and report it.
5.64

P. CCCCC1CN(c2ccc(F)cc2)c2cc(SC)c(OCC(C)(C)C(=O)O)cc2S(=O)(=O)N1C (stereo not drawn) [Example 13]
Q. CCCCC1CN(c2ccccc2)c2cc(SCC)c(OCC3(C(=O)O)CC3)cc2S(=O)(=O)N1C (single isomer, unassigned) [8, enantiomer 2]
R. CCCCC1CN(c2ccccc2)c2cc(SC)c(OCC(OC)C(=O)O)cc2S(=O)(=O)N1C (single isomer, unassigned) [31, stereoisomer 1]
List items by pIC50 in falling order. Dear reader, please state the labels in the requested order.
P, Q, R

====

# study-target: Human IBAT (Homo sapiens)
# Construct: kept under Puromycin selection
# Sequence (Q12908 1-348): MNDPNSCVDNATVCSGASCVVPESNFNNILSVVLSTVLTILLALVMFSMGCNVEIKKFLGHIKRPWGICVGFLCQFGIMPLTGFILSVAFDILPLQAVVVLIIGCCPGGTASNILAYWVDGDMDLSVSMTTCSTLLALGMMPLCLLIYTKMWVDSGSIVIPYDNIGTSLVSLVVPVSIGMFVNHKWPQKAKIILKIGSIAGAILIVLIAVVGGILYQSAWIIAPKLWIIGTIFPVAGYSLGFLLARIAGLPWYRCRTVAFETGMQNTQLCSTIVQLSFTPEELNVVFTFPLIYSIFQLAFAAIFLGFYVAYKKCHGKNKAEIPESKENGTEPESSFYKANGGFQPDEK
# experimental-details: IBAT (h/m) assay, human IBAT-overexpressing cells, 3H-taurocholic acid uptake
# conditions: 0.25 μM 3H-taurocholic acid and 5 μM cold taurocholic acid, 20 minutes, highest test concentration 10 μM, read-out: hIBAT IC50
pIC50: −log10 of the molar value.
measurement-type: pIC50

Find the recorded pIC50 belonging to CCCCC1CN(c2ccccc2)c2cc(SC)c(OCC(C)(OC)C(=O)O)cc2S(=O)(=O)N1C (single isomer, unassigned) [24, diastereomer 1] and report it.
5.99

Find the recorded pIC50 belonging to CCCCC1CN(c2ccc(F)cc2)c2cc(SC)c(OCC3(C(=O)O)CC3)cc2S(=O)(=O)C1 (stereo not drawn) and report it.
6.17

Find the recorded pIC50 belonging to CCCCC1CN(c2ccccc2)c2cc(SC)c(OCC(C)(C)C(=O)O)cc2S(=O)(=O)N1C (single isomer, unassigned) [2, enantiomer 2] and report it.
6.17
